- METHOD SUMMARY: chemical genetic growth profiling, strain panel (AID 1159580);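 also: tested at 20 µM; growth read once vehicle control cultures reached saturation at 30 °C; 1 = growth at the plate median or of vehicle wells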
- MEASUREMENT SETUP: S. cerevisiae deletion strains, growth OD, locus YHR205W, strain SCH9, hits give low values
In all, about 5,500 compounds went through this assay and about 2,000 (36%) were called active. Inconclusive results (about 18%) are left out. This is one part of the list.
Define the label as Condition met when normalized growth is strictly less than 0.9 and as Condition not met in all remaining cases.

| SMILES | LABEL CLASS |
| --- | --- |
| Nc1ccccc1C(=O)Nc1cc(C(F)(F)F)cc(C(F)(F)F)c1 | Condition met |
| O=C(Nc1ccncc1)c1cc(-c2ccccc2)oc1C(F)(F)F | Condition not met |
| Cn1nccc1-c1cc(Cl)cc(Cl)c1O | Condition met |
| C/C(=N/NC(=S)NCC(C)(C)C)c1cc(F)cc(Cl)c1O | Condition not met |
| O=C(Nc1cc(C(F)(F)F)cc(C(F)(F)F)c1)C(Cl)(Cl)Cl | Condition met |

Now for a further molecule.
Inquiry: Field: below-cutoff. Rule: recorded normalized growth strictly less than 0.9. Subject: `Cc1ccc(-c2nc(NS(=O)(=O)c3cccc4nonc34)sc2C)cc1Cl`
Reply text: Condition not met

###

- METHOD SUMMARY: chemical genetic growth profiling, strain panel (AID 1159580)
- MEASUREMENT SETUP: S. cerevisiae deletion strains, growth OD, locus YDR477W, strain SNF1, hits give low values
Screen size: about 5,500 compounds; about 2,000 (36%) were called active. About 18% were inconclusive and are not listed. The list shows a part of the results.
QUANTITY KIND: normalized growth
Respond using a number only.

| COMPOUND | normalized growth |
| --- | --- |
| O=S(=O)(Nc1cc(Cl)c(Cl)cc1Cl)c1cc(C(F)(F)F)cc(C(F)(F)F)c1 | 0.919 |
| Nc1ccccc1C(=O)Nc1cc(C(F)(F)F)cc(C(F)(F)F)c1 | 0.992 |
| Cc1c(S(=O)(=O)Nc2cccc([N+](=O)[O-])c2)sc2ccc(Cl)cc12 | 0.979 |
| O=C(Nc1ccncc1)c1cc(-c2ccccc2)oc1C(F)(F)F | 0.973 |
| C/C(=N/NC(=S)NCC(C)(C)C)c1cc(F)cc(Cl)c1O | 0.928 |
| COc1ccc(Nc2nc(NC(=O)Nc3ccc(Cl)cc3)n[nH]2)cc1 | 0.809 |
| Cc1ccccc1/C=C/c1c[nH]c2ccccc12 | 0.924 |
| CC(C)(C)C1=C(C#N)C(c2c(Cl)cccc2Cl)C(C#N)=C(N)O1 (configuration not stated) | 0.995 |
| N#Cc1ccc(Oc2sccc2[N+](=O)[O-])cc1 | 0.888 |
| C[C@@H](Nc1ncnc2sc3c(c12)CCCC3)c1ccccc1 | 0.932 |

Inquiry: Tell me its normalized growth given `Brc1ccc(-c2csc(-c3cccnc3)n2)cc1` as the entry.
Reply text: 0.624

Inquiry: Tell me its normalized growth given CCOC(=O)c1sc(S(C)=NC(=O)Nc2ccc(Cl)cc2)c2c1CCC=C2 (configuration not stated) as the entry.
Reply text: 0.937

###

Measured normalized growth values are reported for all entries that follow.
- METHOD SUMMARY: chemical genetic growth profiling, strain panel (AID 1159580)
- MEASUREMENT SETUP: S. cerevisiae deletion strains, growth OD, locus YDR137W, strain rgp1, hits give low values
The campaign covered roughly 5,500 compounds. About 2,000 (36%) were called active. Not shown: some 18% with an inconclusive outcome. The list shows a part of the results.
Respond using a number only.

As a guide, the following entries are already answered.
| MOLECULE | QUANTITY KIND | NUMBER |
| --- | --- | --- |
| NC(N)=NCCCCN=C(N)N | normalized growth | 1.01 |
| O=C(O)COc1ccc(Cl)cc1Cl | normalized growth | 1.01 |

Inquiry: Tell me its normalized growth given O=c1cccc2n1CC1CC2CN2CCCC[C@@H]12 (stereo not given in full) as the entry.
Reply text: 0.994

Inquiry: Tell me its normalized growth given O=C(O)C(O)C(O)C(=O)O (stereo not given) as the entry.
Reply text: 0.984

Inquiry: Tell me its normalized growth given C[C@@H]1CC2C3CCC4=CC(=O)C=C[C@]4(C)[C@@]3(F)[C@@H](O)C[C@]2(C)[C@@]1(O)C(=O)CO (stereo not given in full) as the entry.
Reply text: 1.02

###

- METHOD SUMMARY: chemical genetic growth profiling, strain panel (AID 1159580)
- MEASUREMENT SETUP: S. cerevisiae deletion strains, growth OD, locus YKL203C, strain TOR2, hits give low values
About 2,000 (36%) of roughly 5,500 compounds were called active. Roughly 18% stayed inconclusive and do not appear here. Some of the results follow.
Define the label as label 1 when normalized growth is strictly less than 1 and as label 0 in all remaining cases.

Field: example entries. Status: answers known.
| COMPOUND | LABEL CLASS |
| --- | --- |
| Cc1ccc(NC(=S)C(C#N)C(=O)N2CCOCC2)c(C)c1 (stereo not given) | label 0 |
| O=S(=O)(Nc1cc(Cl)c(Cl)cc1Cl)c1cc(C(F)(F)F)cc(C(F)(F)F)c1 | label 1 |

Now for a further compound.
Inquiry: Field: below-cutoff. Rule: recorded normalized growth strictly less than 1. Subject: `Brc1ccc(-c2csc(-c3cccnc3)n2)cc1`
Reply text: label 1

###

- METHOD SUMMARY: chemical genetic growth profiling, strain panel (AID 1159580);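 also: tested at 20 µM; growth read once vehicle control cultures reached saturation at 30 °C; 1 = growth at the plate median or of vehicle wells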
- MEASUREMENT SETUP: S. cerevisiae deletion strains, growth OD, locus YMR219W, strain ESC1
Among all 5,500 compounds or so, about 2,000 (36%) were called active. Another 18% or so got no clear call; they are omitted. No stated cut-off is given here; in the data, active means normalized growth mostly below about 0.91 (no sharp cut-off); inconclusive means no clear call, values can overlap the other calls; inactive means mostly above about 0.92. Some of the results follow.
Your response should consist of one outcome taken from active, inactive

| COMPOUND | LABEL CLASS |
| --- | --- |
| O=C1C2C3C=CC(C3)C2C(=O)N1c1ccc(F)c(F)c1 (centres undefined) | inactive |

Inquiry: Each compound tested received a call. Report the one for `Brc1cccc(C=NCc2ccccc2)c1` .
Reply text: active

Inquiry: Each compound tested received a call. Report the one for `FC(F)(F)Oc1ccccc1-c1nnc(-c2ccc(Cl)cc2)o1` .
Reply text: inactive

Inquiry: Each compound tested received a call. Report the one for `Cc1cc(Cl)ccc1Oc1ccc(N)cn1` .
Reply text: inactive

Inquiry: Each compound tested received a call. Report the one for `COc1cscc1C(N)=O` .
Reply text: inactive

Inquiry: Each compound tested received a call. Report the one for `COc1ccc(C(=O)c2sc(Nc3ccccc3)nc2-c2ccccc2)cc1` .
Reply text: inactive

###

- METHOD SUMMARY: chemical genetic growth profiling, strain panel (AID 1159580);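 also: tested at 20 µM; growth read once vehicle control cultures reached saturation at 30 °C; 1 = growth at the plate median or of vehicle wells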
- MEASUREMENT SETUP: S. cerevisiae deletion strains, growth OD, locus YDR101C, strain arx1
Hit rate of the full screen: of about 5,500 compounds, about 2,000 (36%) were called active. About 18% were inconclusive and are not listed. No stated cut-off is given here; in the data, active means normalized growth mostly below about 0.91 (no sharp cut-off); inconclusive means no clear call, values can overlap the other calls; inactive means mostly above about 0.92. The list shows a part of the results.
Your response should consist of one outcome taken from active, inactive

| COMPOUND | LABEL CLASS |
| --- | --- |
| CNc1ccc(C(=O)CC(O)CCC(C)C2OC(=O)CC(O)CC(=O)CC(O)CC(O)CC(O)CC(O)CC3(O)CC(O)C(C(=O)OC)C(CC(OC4OC(C)C(O)C(N)C4O)/C=C/C=C/C=C/C=C/C=C/C=C/C=C/C2C)O3)cc1 (stereo not drawn) | active |

Inquiry: Each compound tested received a call. Report the one for `COc1cc(OC)c2c(=O)cc(-c3ccccc3)oc2c1` .
Reply text: inactive

Inquiry: Each compound tested received a call. Report the one for CC1[C@H](C)OC(=O)CC(O)CC(O)CC(O)CCC(O)C(O)C[C@]2(O)CC(O)C(C(=O)O)C(CC(OC3O[C@H](C)[C@@H](O)[C@H](N)[C@@H]3O)/C=C/C=C/C=C/C=C/CC/C=C/C=C/[C@H](C)[C@H]1O)O2 (stereo partly drawn) .
Reply text: active

###

- METHOD SUMMARY: chemical genetic growth profiling, strain panel (AID 1159580);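 also: tested at 20 µM; growth read once vehicle control cultures reached saturation at 30 °C; 1 = growth at the plate median or of vehicle wells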
- MEASUREMENT SETUP: S. cerevisiae deletion strains, growth OD, locus YGL173C, strain kem1, hits give low values
Among all 5,500 compounds or so, about 2,000 (36%) were called active. Not shown: some 18% with an inconclusive outcome. This is one part of the list.
QUANTITY KIND: normalized growth
Respond using a number only.

As a guide, the following entries are already answered.
| COMPOUND | normalized growth |
| --- | --- |
| COc1cc(NS(C)(=O)=O)ccc1Cc1c2ccccc2nc2ccccc12 | 0.991 |
| O=c1oc2ccccc2cc1O | 0.996 |
| Cc1onc(-c2ccccc2)c1-c1ccc(S(N)(=O)=O)cc1 | 1.01 |
| C=NC(C(=O)NC1C(=O)N2C1SC(C)(C)C2C(=O)O)c1ccccc1 (configuration not stated) | 1.01 |
| COc1ccc(-c2oc3cc(OC)c(OC)c(OC)c3c(=O)c2OC)cc1 | 0.97 |

Inquiry: Tell me its normalized growth given `CC(=O)O[C@]1(C)CC[C@@]23CC1C(C)(C)[C@@H]2CC[C@H]3C` as the entry.
Reply text: 0.975

Inquiry: Tell me its normalized growth given C[C@@H]1CC2C3CCC4=CC(=O)C=C[C@]4(C)[C@@]3(F)[C@@H](O)C[C@]2(C)[C@@]1(O)C(=O)CO (some centres not stated) as the entry.
Reply text: 0.964
